# assay-remarks: in vitro
# stated-conditions: Vero cells (ATCC CCL81), non-infected

smiles	viability at 125 ppm, %
CCCCCCCCNC(=O)[C@H](CCCNC(=N)N)NC(=O)[C@H](CCCNC(=N)N)NC(=O)CCCCCCC	59
